This listing pairs binders with measured koff.
target_system: T1, Recombinant Human CD14/His Protein (B294801) (human, UniProt P08571 20-352, limits assumed)
T1 construct: Bought His-tagged recombinant human CD14; also called recombinant human CD14 antigen; CD14 antigen; not shown: histidine tag
T1 sequence (looked up): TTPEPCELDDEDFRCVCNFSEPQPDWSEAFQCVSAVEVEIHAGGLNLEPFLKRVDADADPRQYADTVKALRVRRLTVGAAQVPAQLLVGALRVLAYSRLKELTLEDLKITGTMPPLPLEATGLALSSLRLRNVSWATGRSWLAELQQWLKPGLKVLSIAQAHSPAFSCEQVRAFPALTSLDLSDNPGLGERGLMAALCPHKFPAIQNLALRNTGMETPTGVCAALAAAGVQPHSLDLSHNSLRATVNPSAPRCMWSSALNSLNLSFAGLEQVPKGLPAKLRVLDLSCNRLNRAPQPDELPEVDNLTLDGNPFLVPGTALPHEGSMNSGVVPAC
protocol_details: SPR (Biacore 8K), antibody captured on Protein A chip, CD14-His analyte 0.78125-25 nM, 1:1 binding
Respond with the bare value in s⁻¹.

Here are 3 binders together with their reported answers.
Requested read-out: koff. Entry: Antibody No. D6DD3D002 (HU1127-hVH1/hVL1) (antibody, human IgG1, kappa, V domains shown, Humanized IgG1 (hFc)) VH: QVQLQESGPGLVKPSQTLSLTCTVSGGSISSDSAWNWIRQHPGKGLEWIGYISYSGSTSYNPSLKSRVTISRDTSKNQFSLKLSSVTAADTAVYYCVRGLRFAYWGQGTLVTVSS VL: EIVLTQSPATLSLSPGERATLSCRASESVDSYVNSFLHWYQQKPGQAPRLLIYRASNLQSGIPARFSGSGSRTDFTLTISSLEPEDVAVYYCQQSNEDPYTFGQGTKLEIKR
0.00292

Requested read-out: koff. Entry: Antibody No. D6DD3D007 (HU1127-hVH1/hVL2) (antibody, human IgG1, kappa, V domains shown, Humanized IgG1 (hFc)) VH: QVQLQESGPGLVKPSQTLSLTCTVSGGSISSDSAWNWIRQHPGKGLEWIGYISYSGSTSYNPSLKSRVTISRDTSKNQFSLKLSSVTAADTAVYYCVRGLRFAYWGQGTLVTVSS VL: DIVLTQSPDSLAVSLGERATINCRASESVDSYVNSFLHWYQQKPGQPPKLLIYRASNLQSGVPDRFSGSGSRTDFTLTISSLQAEDVAVYYCQQSNEDPYTFGQGTKLEIKR
0.00342

Requested read-out: koff. Entry: Antibody No. D6DD3D001 (HU1127-mVH/mVL) (antibody, human IgG1, kappa, V domains shown, Mouse variable domains of Atibuclimab on human IgG1 constant regions (hFc, 146 kDa); also called Original IgG1 antibody; mouse antibody) VH: DVQLQQSGPGLVKPSQSLSLTCTVTGYSITSDSAWNWIRQFPGNRLEWMGYISYSGSTSYNPSLKSRISITRDTSKNQFFLQLNSVTTEDTATYYCVRGLRFAYWGQGTLVTVSS VL: DIVLTQSPASLAVSLGQRATISCRASESVDSYVNSFLHWYQQKPGQPPKLLIYRASNLQSGIPARFSGSGSRTDFTLTINPVEADDVATYYCQQSNEDPYTFGGGTKLEIKR
0.000858

API: the following record is the query input.
Requested read-out: koff. Entry: Antibody No. D6DD3D012 (HU1127-hVH1/hVL3) (antibody, human IgG1, kappa, V domains shown, Humanized IgG1 (hFc)) VH: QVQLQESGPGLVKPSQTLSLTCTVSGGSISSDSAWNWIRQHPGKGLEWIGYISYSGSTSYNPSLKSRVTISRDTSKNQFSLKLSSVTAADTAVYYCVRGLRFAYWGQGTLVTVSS VL: DIQLTQSPSSLSASVGDRVTITCRASESVDSYVNSFLHWYQQKPGKAPKLLIYRASNLQSGVPSRFSGSGSRTDFTLTISSLQPEDVATYYCQQSNEDPYTFGQGTKLEIKR
0.00293
